Catalogue of pKd readings, one per entry.
- Subject of test: T1, FITC-labeled salmon calcitonin (sCT) fragment(22–32) (salmon, fluorescein isothiocyanate (FITC) label, position not stated)
- T1 construct: salmon calcitonin, residues 22-32 (11 amino acids); numbers count on: the mature 32-residue hormone; probably FITC at the N-terminus and a C-terminal amide, neither stated for this peptide; also called FITC-sCT(22–32); sCT(22–32); source: synthetic peptide (custom-synthesized, Genscript, HPLC-purified)
- Test summary: fluorescence polarisation; saturation binding format; 10 nM FITC-labeled peptide probe, purified receptor ECD at rising concentrations; 1 h at room temperature; anisotropy; mean pKD of at least three independent experiments
- Condition info: both partners purified
Just so you know, pKd here is -log10 of the concentration in molar units; reply with that number alone.

Binder	pKd
amylin receptor 1 extracellular domain with calcitonin receptor D97E (hRAMP1.24–111-(GSA)3-hCTR.34–141.D97E-H6) (receptor, N-glycosylated (sites not given)) TTACQEANYGALLRELCLTQFQVDMEAVGETLWCDWGRTIRSYRELADCTWHMAEKLGCFWPNAEVDRFFLAVHGRYFRSCPISGRAVGSAGSAGSAIEPKPFLYVVGRKKMMDAQYKCYDRMQQLPAYQGEGPYCNRTWDGWLCWDDTPAGVLSYQFCPEYFPDFDPSEKVTKYCDEKGVWFKHPENNRTWSNYTMCNAFTPEK	6.79

Attention now shifts to the item below.
Kindly note the recorded pKd for amylin receptor 1 extracellular domain with calcitonin receptor E123A (hRAMP1.24–111-(GSA)3-hCTR.34–141.E123A-H6) (receptor, N-glycosylated (sites not given)) TTACQEANYGALLRELCLTQFQVDMEAVGETLWCDWGRTIRSYRELADCTWHMAEKLGCFWPNAEVDRFFLAVHGRYFRSCPISGRAVGSAGSAGSAIEPKPFLYVVGRKKMMDAQYKCYDRMQQLPAYQGEGPYCNRTWDGWLCWDDTPAGVLSYQFCPDYFPDFDPSEKVTKYCDEKGVWFKHPANNRTWSNYTMCNAFTPEK , which is 6.44
